system: SK-OV-3 ovarian; assay: NCI tumour cell line growth inhibition, 48 h
Give measured TGI for each item. Keep answers brief.

Task: Param item = O=c1[nH]cc(COCC(F)(F)C(F)(F)C(F)(F)C(F)F)c(=O)[nH]1 ; retrieve measured TGI.
Result: > 100 µM

Task: I'd like to know its TGI. The compound in question is N#CC(/C(=N/NC(=O)C(=O)NN)C(=O)NC12CC3CC(CC(C3)C1)C2)c1ccccc1 (stereo not drawn)
Result: > 100 µM

Task: So what does the record say about TGI for O=C1/C(=C\c2ccc([N+](=O)[O-])o2)SC2N=C(COc3ccc(Cl)cc3)NN12 (stereo not drawn) ?
Result: 38.8 µM

Task: Look at this compound and give its reported TGI. C=CCNC1=C2C[C@@H](C)C[C@@H](OC)[C@@H](OC(=O)CCCN)[C@H](C)/C=C(\C)[C@@H](OC(N)=O)[C@H](OC)/C=C\C=C(/C)C(=O)NC(=CC1=O)C2=O
Result: 28.7 µM

Task: State the recorded TGI for this entry: Cc1cccc2c1Oc1cc(Cl)ccc1C2NC(=O)CCN1CCOCC1 (stereo not drawn)
Result: > 100 µM

Task: Which TGI is reported for this compound? CC1(C)OCC2OC3(c4nc(C#N)c(N)o4)OC(C)(C)OC3C2O1 (stereo not drawn)
Result: > 100 µM

Task: Give the measured TGI of COc1cc2cn3c4ccc(O)cc4[nH]c(=O)c3c2cc1OC .
Result: 1.95 µM

Task: I'd like to know its TGI. The compound in question is COc1cccc(CCn2c(N)c(-c3ccccc3)c3ccc([N+](=O)[O-])cc3c2=O)c1
Result: 23.3 µM

Task: Bench note: what TGI did COc1ccc(C(=O)C(CO)Oc2ccccc2OC)cc1OC (stereo not drawn) show?
Result: > 100 µM

Task: Entry N#C/C(=C\c1ccc(O)c(O)c1)C(N)=O : reported TGI = ?
Result: > 100 µM

Task: # TGI lookup, item O=C(Nc1cccc(Cl)c1)c1cc2ccccc2cc1O
Result: 4.95 µM

Task: Which TGI is reported for this compound? CSC1=C(SC)SC(=C2SC3=C(SC(=C4SCCS4)S3)S2)S1
Result: > 100 µM

Task: Find the recorded TGI belonging to CN1CCOC1(C)CO (stereo not drawn) and report it.
Result: > 100 µM
